- ASSAY_PROTOCOL: in vitro
- CONDITIONS: human, hela cells, % viability
Kindly state viability at 28.5 h, 10 µM for each of the entries shown.
One number for each entry, in %.

Examples from the recorded data:
CCC(CN1CCOCC1)NC(=O)Cc1coc2cc(C)c(C)cc12 (centres unmarked) : 91
COC(=O)c1cc(CN2CCCN(S(=O)(=O)c3ccc(C(=O)c4ccccc4)cc3)CC2)cn1C : 97.2
NC(=O)C1CCN(C(=O)CN(c2ccccc2)S(=O)(=O)c2ccccc2[N+](=O)[O-])CC1 : 78
Cc1ccccc1N1C(=O)c2ccc(Br)cc2C1=O : 90.9
CC(NC(=O)c1ccccc1Cn1cccn1)c1ccccn1 (centres unmarked) : 86.3
COc1ccc2[nH]cc(CCNC(=O)c3ccc(Cl)c(Cl)c3)c2c1 : 107
CC(=O)Nc1ccc(-c2ccc(=O)n3c2[C@@H]2C[C@@H](CN(C(=O)C(C)(C)C)C2)C3)cc1 : 112
COc1ccc(C(C)C)cc1-c1nccnc1N[C@@H](CO)C(C)C : 109
CCc1nc2ccc(C(=O)Nc3ccc4c(c3)OCC(=O)N4)cn2c1N(C)CC : 96.8
COC(=O)N1CC2(CCCCC2NCC2CCCO2)c2ccccc21 (centres unmarked) [CBK083541T] : 95.2

Batch: viability at 28.5 h, 10 µM for all items listed.
1. Cc1nnnn1-c1ccc(CC(=O)N2CCc3sccc3C2c2ccccc2)cc1 (centres unmarked)
2. CCC(CN1CCCC1)NC(=O)C1CC(=O)Nc2ccccc21 (centres unmarked)
3. O=C(OCc1ccc(Cl)cc1)c1ccc2c(c1)C(=O)N(c1cccc([N+](=O)[O-])c1)C2=O
4. CN(C(=O)c1ccccn1)C1CCN(c2ncnc3ccccc23)CC1
5. O=C(NC[C@H]1O[C@@H](CC(=O)N2CCN(c3ccccn3)CC2)[C@H](O)[C@@H]1O)C1CC1
6. O=C(CC(CN1CCN(Cc2ccccn2)CC1)C(=O)O)NCc1ccccc1 (centres unmarked)
7. O=c1[nH]cnc2c1cnn2Cc1ccccc1Cl

Ans.
[103, 90.6, 109, 91.8, 107, 81.2, 97.1]

// batch mode: one viability at 28.5 h, 10 µM value per listed entry
1. CN1CCC2(CC1)CN(C(=O)C1CC1)Cc1ccccc1O2
2. O=c1nc(-c2ccccc2Cl)oc2ccccc12
3. Cc1nnc(CN(C)C2CCN(CCc3cccs3)C2)n1C (centres unmarked)
4. O=C(NC1CCC1)c1cn2cc(-c3cccs3)n(CC3CC3)c(=O)c2n1
5. O=C(Nc1ccc(N2CCN(Cc3ccccc3F)CC2)cc1)c1cccnc1
6. CN(CC(=O)Nc1cnc(-c2ccc(F)cc2)c(-c2ccco2)n1)S(=O)(=O)c1ccccc1

Ans.
[102, 89.9, 97.8, 82.9, 106, 100]
